# target-desc: human Tissue Factor (TF) (human, UniProt P13726 33-295)
# method: cell-based or functional assay
quantity-measured: % GM-CSF at 100 nM antibody (%)
Give a bare numeral; the unit % is implied.

// % GM-CSF at 100 nM antibody value for 43D (antibody, human IgG1, V domains shown) VH: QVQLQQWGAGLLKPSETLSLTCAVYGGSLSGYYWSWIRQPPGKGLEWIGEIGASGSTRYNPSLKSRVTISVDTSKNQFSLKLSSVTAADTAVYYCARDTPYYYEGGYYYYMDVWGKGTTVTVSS VL: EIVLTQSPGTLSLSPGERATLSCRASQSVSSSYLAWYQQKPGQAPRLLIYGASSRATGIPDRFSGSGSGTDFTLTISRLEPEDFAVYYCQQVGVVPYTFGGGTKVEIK : 12

// % GM-CSF at 100 nM antibody value for 25G9 (antibody, human IgG1, V domains shown) VH: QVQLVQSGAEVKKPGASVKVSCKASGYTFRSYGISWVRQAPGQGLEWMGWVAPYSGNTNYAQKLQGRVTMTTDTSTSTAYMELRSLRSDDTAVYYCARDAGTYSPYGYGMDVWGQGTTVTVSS VL: DIQMTQSPSTLSASVGDRVTITCQASQSIDSWLAWYQQKPGKAPKLLIYSASYLESGVPSRFSGSGSGTEFTLTISSLQPDDFATYYCQRFQSLPPFTFGGGTKVEIK : 25

// % GM-CSF at 100 nM antibody value for 25A (antibody, human IgG1, V domains shown, Human IgG1; also called antibody designated 25A; Antibody Clone 25A) VH: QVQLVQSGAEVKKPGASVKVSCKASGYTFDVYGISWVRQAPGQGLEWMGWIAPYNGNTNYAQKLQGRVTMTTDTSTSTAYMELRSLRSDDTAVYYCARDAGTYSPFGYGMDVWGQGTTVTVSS VL: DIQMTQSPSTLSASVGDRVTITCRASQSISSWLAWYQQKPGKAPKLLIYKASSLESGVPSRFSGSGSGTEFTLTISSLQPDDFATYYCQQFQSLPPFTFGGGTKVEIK : 22
